Some binders, each annotated with its measured kon.
- measurementTarget: T1, dog serum albumin (dog, UniProt P49822 25-608)
- T1 construct: Bought protein, immobilized on a CM5 chip by amine coupling; also called Dog SA
- experimentalDetails: SPR (Biacore 8K), albumin immobilized on CM5 chip, 25 C, 1:1 kinetic fit
Only the number, expressed in M⁻¹ s⁻¹, is required.

Example binders with recorded kon:
RLN Analog 5 (other, Single-chain fusion: RLN2 B chain (desB1) - L2 - RLN2 A chain - (G4Q)5 L1 - VHH (C-terminal)) SWMEEVIKLCGRELVRAQIAICGMSTWSGGGSGGSGGGQLYSALANKCCHVGCTKRSLARFCGGGGQGGGGQGGGGQGGGGQGGGGQEVQLLESGGGLVQPGGSLRLSCAASGRYIDETAVAWFRQAPGKEREFVAGIGGGVDITYYADSVKGRFTISRDNSKNTLYLQMNSLRPEDTAVYYCAARPGRPLITSKVADLYPYWGQGTLVTVSSPP    710000
RLN Analog 12 (other, Single-chain fusion: VHH - (G4Q)5 L1 - RLN2 B chain (desB1) - L2 of thirteen residues - RLN2 A chain (desA1-4)) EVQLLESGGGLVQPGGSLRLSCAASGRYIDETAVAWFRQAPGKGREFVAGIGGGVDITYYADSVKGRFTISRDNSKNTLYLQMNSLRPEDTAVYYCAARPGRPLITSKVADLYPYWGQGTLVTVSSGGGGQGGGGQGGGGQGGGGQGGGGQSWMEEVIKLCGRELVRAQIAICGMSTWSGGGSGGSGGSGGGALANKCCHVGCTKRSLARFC    2.1e+06

Bench note: what kon did RLN Analog 10 (other, Single-chain fusion: RLN2 B chain (desB1) - L2 - RLN2 A chain - (PGPQ)8 L1 - VHH (C-terminal)) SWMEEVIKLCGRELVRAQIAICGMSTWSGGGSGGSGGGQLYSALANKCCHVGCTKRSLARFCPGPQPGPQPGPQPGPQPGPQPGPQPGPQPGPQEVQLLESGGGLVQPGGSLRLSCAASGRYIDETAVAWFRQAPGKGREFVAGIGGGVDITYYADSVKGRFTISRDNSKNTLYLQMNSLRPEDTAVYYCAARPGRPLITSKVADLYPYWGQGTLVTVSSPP show?
630000
